Cited source: PubChem BioAssay (NCI)

- System: ACHN renal
- METHOD: NCI tumour cell line growth inhibition, 48 h; in the data active = GI50 below about 0.43 µM; inactive = the rest
Give one outcome, nothing more. List: active, inactive

Asked: Recorded test call requested for O=c1oc2ccc(Br)cc2c(=O)n1-c1ccc(I)cc1F
Given back: active

Asked: Recorded test call requested for CC(=O)[CH-]C(=O)c1ccccc1.CC(=O)[CH-]C(=O)c1ccccc1.C[C@]12CCC(=O)C=C1CC[C@@H]1C2CC[C@@]2(C)C1CC[C@@H]2[O-].C[C@]12CCC(=O)C=C1CC[C@@H]1C2CC[C@@]2(C)C1CC[C@@H]2[O-].Cl.[Ti+4] (stereo partly drawn)
Given back: inactive

Further cases:
Asked: Recorded test call requested for CN1CCN(Cc2ccc(NC(=O)c3cccc(C#Cc4cnc(N)c5ncccc45)c3F)cc2C(F)(F)F)CC1
Given back: inactive
